Data origin, for the record: patent US12077503B2

Listed here: items and their measured Plant response rating (scale of 0 to 100), Wheat.
system: wheat (winter wheat, Triticum aestivum); experiment: Test C preemergence; assay type: in vivo; settings: 31 g ai/ha, 0 is no effect, 100 is complete control
Observable: Plant response rating (scale of 0 to 100), Wheat

# Compound, Endpoint value
rows = [
    ("CN1CC(c2cccc(C(F)(F)F)c2)C(C(=O)Nc2ccccc2S(C)(=O)=O)C1=O (stereo not shown) [Compound 637]", 60),
    ("CN1C[C@H](c2ccc(F)c(F)c2)[C@@H](C(=O)Nc2cccc(F)c2F)C1=O [Compound 639]", 0),
    ("CN1CC(c2ccc(C(F)(F)F)cc2)C(C(=O)Nc2ccccc2S(C)(=O)=O)C1=O (stereo not shown) [Compound 624]", 0),
    ("CN1C[C@H](c2ccc(C(F)(F)F)cc2)[C@@H](C(=O)Nc2ccccc2F)C1=O [Compound 622]", 30),
]

---

Overview of recorded pest or weed control at 500 g/ha for various compounds
test system: ragweed (common ragweed, Ambrosia elatior); assay: Test A postemergence; type: in vivo; settings: Ambrosia artemisiifolia, post-emergence, 240 h, Postemergence, 500 g ai/ha; visual injury, 0 to 100 scale (0 no effect, 100 complete control), approx. 10 d; read-out: Plant response rating, Ragweed
Text: […]

# Compound, pest or weed control at 500 g/ha, %
measured = [
    ("CN1C[C@H](c2cccc(C(F)(F)F)c2)[C@@H](C(=O)Nc2ccc(F)c(F)c2F)C1=O", 20),
    ("CSc1ccccc1NC(=O)[C@H]1C(=O)NC[C@@H]1c1ccc2c(c1)OCO2", 0),
    ("Cc1ccc([C@H]2CNC(=O)[C@@H]2C(=O)Nc2c(F)cccc2F)cc1C", 0),
    ("Cc1ccc([C@H]2CN(C)C(=O)[C@@H]2C(=O)Nc2ccc(F)c(F)c2F)cc1", 70),
    ("CN1CC(c2cccc(OCC=C(Cl)Cl)c2)C(C(=O)Nc2cccc(F)c2F)C1=O (stereo not drawn)", 0),
    ("CSc1ccccc1NC(=O)[C@H]1C(=O)N(C)C[C@@H]1c1cccc(C(F)(F)F)c1", 60),
]

---

test system: ryegrass, Italian (Italian ryegrass, Lolium multiflorum); assay: Test A preemergence; assay type: in vivo; settings: Lolium multiflorum, pre-emergence, 240 h, 125 g ai/ha, preemergence; 0 to 100 scale where 0 is no effect and 100 is complete control; approx. 10 d; read-out: Ryegrass, Italian plant response rating
Excerpt: […]
Measured pest or weed control at 125 g/ha accompanies every entry in the list below.
Observable: pest or weed control at 125 g/ha

# Compound, Endpoint value
rows = [
    ("Cc1ccncc1NC(=O)[C@H]1C(=O)N(C)C[C@@H]1c1cccc(C(F)(F)F)c1", "0%"),
    ("O=C1NC[C@H](c2ccc(F)c(OC(F)(F)C(F)F)c2)[C@H]1C(=O)Nc1ccc(F)cc1F (racemic)", "30%"),
    ("CCc1ccc([C@H]2CNC(=O)[C@@H]2C(=O)Nc2ccccc2SC)cc1", "0%"),
    ("O=C1NC[C@H](c2cc(C(F)F)cs2)[C@H]1C(=O)Nc1cccc(F)c1F", "0%"),
    ("CC(C)Oc1ccc([C@H]2CNC(=O)[C@@H]2C(=O)Nc2ccccc2F)cc1", "0%"),
]
